- System: WNK2
- assay_conditions: concentration: 1 μM, replicates: in singlicate; n = 1;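 also: KINOMEscan kinase panel screen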
measurement_type: %Inh (%)
A number alone suffices; assume %.

>  <molecule>
c1ccc(-c2n[nH]cc2-c2ccnc3ccccc23)nc1

>  <%Inh (%)>
11

$$$$
>  <molecule>
NCC(NC(=O)c1cc(-c2cn[nH]c2)c(-c2ccnc3[nH]ccc23)s1)c1ccccc1.O=C(O)C(F)(F)F.O=C(O)C(F)(F)F (stereo not shown)

>  <%Inh (%)>
9

$$$$
>  <molecule>
Cc1nnc(-c2ccc3occ(-c4ccc(C(C)O)cc4)c3c2)o1 (stereo not shown)

>  <%Inh (%)>
0

$$$$

Turning to the following molecule.
Please provide the recorded %Inh for Cc1c(Cn2c(C)nn3c(=O)cc(N4CCOC(C)C4)nc23)cccc1C(F)(F)F (stereo not shown) , tested on WNK2.
0

###

Measured %Inh, listed per entry.
- Test system: YANK1
- Construct: gene STK32A
- assay_conditions: concentration: 1 μM, replicates: in singlicate; n = 1
A number alone suffices; assume %.

In the examples that follow, each entry is paired with its recorded %Inh.
>  <molecule>
Cc1cn2c(=O)cc(N3CCOCC3)nc2n1Cc1cccc(Cl)c1Cl [GSK2334006]

>  <%Inh, %>
23

$$$$
>  <molecule>
Nc1nccc(-c2c(-c3ccc(F)cc3)ncn2C2CCN(CC(F)(F)F)CC2)n1 [SB-236560]

>  <%Inh, %>
22

$$$$
>  <molecule>
Cc1ccc(NC(=O)c2ccnc(N3CCN(C)CC3)c2)cc1-c1ccc(C(=O)NCC2CC2)cc1 [GW775604]

>  <%Inh, %>
0

$$$$
>  <molecule>
COc1ccc(S(=O)(=O)NC2CCN(c3cc(C)nc(Nc4cccc(C#N)c4)n3)CC2)cc1.O=C(O)C(F)(F)F [GSK1653539]

>  <%Inh, %>
4

$$$$
>  <molecule>
COc1cc2ncn(-c3cc(OCc4sccc4Cl)c(C(N)=O)s3)c2cc1OC [GSK448459]

>  <%Inh, %>
11

$$$$
>  <molecule>
COC(=O)Nc1nc2cc(Oc3ccc(NC(=O)Nc4cc(F)ccc4F)cc3)ccc2[nH]1.Cl [GW701424]

>  <%Inh, %>
0

$$$$
>  <molecule>
COc1cc2c(cc1OC[C@@H](O)CO)ncc1c3ccc(C#N)cc3[nH]c21

>  <%Inh, %>
19

$$$$

Turning to the following molecule.
Please provide the recorded %Inh for CCc1ccnc(/C=C/c2n[nH]c3cc(Sc4ccccc4C(=O)NC)ccc23)c1 , tested on YANK1.
0

###

- System: CTK
- Construct: gene MATK
- assay_conditions: concentration: 1 μM, replicates: in singlicate; n = 1
measurement_type: %Inh (%)
A number alone suffices; assume %.

In the examples that follow, each entry is paired with its recorded %Inh.
>  <sample_smiles>
Cn1cc(-c2ccc3c(c2)CCN3C(=O)Cc2ccccc2Cl)c2c(N)ncnc21

>  <measurement_type>
%Inh

>  <assay_result>
18

$$$$
>  <sample_smiles>
Cc1ccc(C(=O)NCC(N)=O)cc1-n1c(C)cc(OCc2ccc(F)cc2F)c(Br)c1=O

>  <measurement_type>
%Inh

>  <assay_result>
0

$$$$
>  <sample_smiles>
COc1cc2c(cc1OCCN1CCN(C)CC1)ncc1c3ccc(C#N)cc3[nH]c21

>  <measurement_type>
%Inh

>  <assay_result>
23

$$$$

Which %Inh reading was recorded for the compound CC(C)(CN)c1nc(-c2ccc(Cl)c(O)c2)c(-c2ccncc2)[nH]1.O=C(O)C(F)(F)F ?
0

O=c1cc(N2CCOCC2)nc2n(Cc3cccc(F)c3)ccn12 ?
0

O=C(Nc1n[nH]c2cc(-c3cccc(F)c3)ccc12)C1CC1 ?
49

Cn1ccc2ncnc(Oc3ccc(NC(=O)Nc4ccncc4)c(Cl)c3)c21 ?
0

Fc1ccc(-c2ncn(CCCN3CCOCC3)c2-c2cccnc2)cc1 ?
32

Fc1ccc(-c2nn3c(OCC(F)(F)F)cccc3c2-c2ccncc2)cc1 ?
0

COc1ccc(Nc2ncc(C#N)c(Nc3ccccc3C(N)=O)n2)cc1N1CCN(C)CC1.Cl ?
56

O=C1Cc2cc(Nc3nc(NCc4cccc(S(=O)(=O)C(F)(F)F)c4)ncc3C(F)(F)F)ccc2N1 ?
5

Cc1c2ccc(N(C)c3ccnc(Nc4cccc(S(N)(=O)=O)c4)n3)cc2nn1Cc1ccccc1.Cl.Cl ?
26

CN1c2ccc(NCc3ccc(F)cc3)cc2-c2c(cnn2C)S1(=O)=O ?
0

CCc1ccnc(/C=C/c2n[nH]c3cc(Sc4ccccc4C(=O)NC)ccc23)c1 ?
0

Cc1cn2c(=O)cc(N3CCOCC3)nc2n1Cc1cccc(Cl)c1Cl ?
0

NS(=O)(=O)CCc1cccc(Nc2nccc(-c3c(-c4cccc(NC(=O)c5c(F)cccc5F)c4)nn4ccccc34)n2)c1 ?
0

CCCCCc1nc2c(N)ncnc2n1CCCCC ?
0
